Where do these numbers come from? They come from patent US20020090352A1.

system: immature LC (Langerhans cells); test: Apoptosis of immature LC, flow cytometry of PI stained nuclei (sub 2N particles) / annexin V; assay type: cell-based, human; details: 100 nM, two days in culture, mean ± SD
Marks after values point to notes of the source that are not given here.
MEASURED_ENDPOINT: percentage of apoptotic (<2N) particles

Worked examples, 8 molecules total:
CC1=C(/C=C/C(C)=C/C=C/C(C)=C/CO)C(C)(C)CCC1 | ≦5%
CC1=C(/C=C/C(C)=C/C=C/C(C)=C/C(=O)O)C(C)(C)CCC1 [tRA, all-trans retinoic acid, reference compound] | 14 ± 6^(b) %
C=C(c1ccc(C(=O)O)cc1)c1cc2c(cc1C)C(C)(C)CC=C2C(C)C | ≦5%
CC1(C)CC=C(c2ccccc2)c2cc(/C=C/c3ccc(C(=O)O)cc3)ccc21 | ≦5%
CC1=C(/C=C/C(C)=C\C=C\C(C)=C\C(=O)O)C(C)(C)CCC1 [Compound 9cRA, 9-cis retinoic acid, reference compound] | 8 ± 3%
CC1(C)CC=C(c2cnc3ccccc3c2)c2cc(C(=O)Nc3ccc(C(=O)O)cc3)ccc21 | ≦5%
CC1(C)CC=C(c2ccccc2)c2cc(/C=C/c3ccc(C(=O)O)cc3Cl)ccc21 | ≦5%
CC1(C)CCC(C)(C)c2cc(C3(c4ccc(C(=O)O)cc4)OCCO3)ccc21 [SR11237, reference compound] | ≦5%

Let us examine a further case.
Which measured percentage of apoptotic (<2N) particles value corresponds to CC1(C)C(=O)C(C)(C)c2cc(C(=O)Nc3ccc(C(=O)O)cc3)ccc21 ? 27 ± 9%

---

assay: in vitro; settings: human
MEASURED_ENDPOINT: cytotoxicity at 3 days, 1 μM (%)
Give the value, in units of %, as a plain number.

What cytotoxicity at 3 days, 1 μM value was documented for this compound, CC1=C(/C=C/C(C)=C/C=C/C(C)=C/CO)C(C)(C)CCC1 ? 40

---

system: immature LC (Langerhans cells); experiment: Apoptosis of immature LC, flow cytometry of PI stained nuclei (sub 2N particles) / annexin V; type: cell-based, human; settings: 100 nM SR11237 + 100 nM ligand
MEASURED_ENDPOINT: percentage of apoptotic (<2N) particles (%)
Express your answer in %, writing the number without its unit.

# percentage of apoptotic (<2N) particles lookup, item CC1(C)CC=C(c2ccccc2)c2cc(/C=C/c3ccc(C(=O)O)cc3)ccc21 20

Please give the measured percentage of apoptotic (<2N) particles for this compound: CC1(C)CC=C(c2ccccc2)c2cc(/C=C/c3ccc(C(=O)O)cc3Cl)ccc21 16

Tell me the measured percentage of apoptotic (<2N) particles of CC1(C)C(=O)C(C)(C)c2cc(C(=O)Nc3ccc(C(=O)O)cc3)ccc21 , please. 32

---

test system: immature LC (Langerhans cells); assay: Apoptosis of immature LC, flow cytometry of PI stained nuclei (sub 2N particles) / annexin V; type: cell-based, human; details: 100 nM SR11237 + 10 nM ligand
Marks after values point to notes of the source that are not given here.
MEASURED_ENDPOINT: percentage of apoptotic (<2N) particles

Consider the worked cases shown below.
CC1(C)CC=C(c2ccccc2)c2cc(/C=C/c3ccc(C(=O)O)cc3)ccc21 | 5%
CC1(C)C(=O)C(C)(C)c2cc(C(=O)Nc3ccc(C(=O)O)cc3)ccc21 | 25 ± 10^(a) %
CC1(C)CC=C(c2ccccc2)c2cc(/C=C/c3ccc(C(=O)O)cc3Cl)ccc21 | ≦5%
CC1(C)CC=C(c2cnc3ccccc3c2)c2cc(C(=O)Nc3ccc(C(=O)O)cc3)ccc21 | ≦5%

Please examine the following record next.
I'd like to know its percentage of apoptotic (<2N) particles. The compound in question is CC1(C)CC=C(C#Cc2ccccc2)c2cc(/C=C/c3ccc(C(=O)O)cc3)ccc21 ≦5%
